Each recorded value in this set is attributed to patent US11498896B2.

- SYSTEM: human D2R/β-arrestin (Homo sapiens (Human), UniProt P14416)
- Sequence (P14416 whole entry): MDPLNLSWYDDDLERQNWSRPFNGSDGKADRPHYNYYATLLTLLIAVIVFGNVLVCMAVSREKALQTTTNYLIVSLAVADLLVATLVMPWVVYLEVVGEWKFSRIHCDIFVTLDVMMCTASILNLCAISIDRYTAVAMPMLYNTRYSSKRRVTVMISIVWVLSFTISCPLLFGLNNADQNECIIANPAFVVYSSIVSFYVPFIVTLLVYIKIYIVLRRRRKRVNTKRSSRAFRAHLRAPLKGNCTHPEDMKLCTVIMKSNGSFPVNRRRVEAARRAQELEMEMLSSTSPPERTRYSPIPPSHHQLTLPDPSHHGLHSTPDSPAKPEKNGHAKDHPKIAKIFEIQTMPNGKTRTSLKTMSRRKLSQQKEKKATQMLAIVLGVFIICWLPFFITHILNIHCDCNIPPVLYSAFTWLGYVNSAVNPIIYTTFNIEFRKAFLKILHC
- PROTOCOL NOTES: cell-based
- MEASUREMENT CONDITIONS: β-arrestin Antagonist, CHO-K1 cells expressing human D2R/β-arrestin; antagonist mode, quinpirole 130 nM
pIC50: −log10 of the molar value.
READOUT: pIC50

# COMPOUND, pIC50
data = [
    ("CC1(Oc2cccc(N)c2)CCN(CCOc2ccccc2)C1 (stereo not drawn) [Example 41]", "4.52 to 5.00"),
    ("CC1(Oc2ccc(Cl)cc2)CCN(CCOc2cccnc2)CC1 [Compound 182]", "< 4.52"),
]

For the next question, use this compound.
Fill in the blank: the reported pIC50 of FC(F)(F)c1ccccc1OCCN1CCC2(CCCN2c2ccc(Cl)cc2)CC1 [Compound 135] is ____.
> 7.00
